- System: Escherichia coli TOP10
- assay.notes: shrunken log2 fold change of peptide-encoding DNA abundance (4.5 h post-induction vs induction); higher = less antimicrobial activity (less host growth inhibition)
- particulars: time post-induction: 4.5 h; library: site-saturation at positions 5, 18, 19, 20
Use shrunken log2 fold change to assign classes; range list: class 0 (below -0.09), class 1 (-0.09 to below 0.2), class 2 (0.2 or more)

Worked examples, 10 sequences total:
[[record]]
sequence_text = "RRIRARPPRLPRPRPRPQWAPRP"
label_value = "class 1"

[[record]]
sequence_text = "RRIRMRPPRLPRPRPRPGMHPRP"
label_value = "class 1"

[[record]]
sequence_text = "RRIRTRPPRLPRPRPRPTMRPRP"
label_value = "class 2"

[[record]]
sequence_text = "RRIRERPPRLPRPRPRPTVAPRP"
label_value = "class 1"

[[record]]
sequence_text = "RRIRKRPPRLPRPRPRPSNAPRP"
label_value = "class 0"

[[record]]
sequence_text = "RRIRCRPPRLPRPRPRPKNPPRP"
label_value = "class 2"

[[record]]
sequence_text = "RRIRGRPPRLPRPRPRPDMSPRP"
label_value = "class 1"

[[record]]
sequence_text = "RRIRDRPPRLPRPRPRPRIKPRP"
label_value = "class 0"

[[record]]
sequence_text = "RRIRPRPPRLPRPRPRPIRQPRP"
label_value = "class 1"

[[record]]
sequence_text = "RRIRGRPPRLPRPRPRPEFGPRP"
label_value = "class 2"


Please indicate the class for RRIRVRPPRLPRPRPRPTEFPRP based on its shrunken log2 fold change.
class 0

Please indicate the class for RRIRHRPPRLPRPRPRPFNTPRP based on its shrunken log2 fold change.
class 0

Please indicate the class for RRIRNRPPRLPRPRPRPAKIPRP based on its shrunken log2 fold change.
class 0

Please indicate the class for RRIRNRPPRLPRPRPRPAPAPRP based on its shrunken log2 fold change.
class 2

Please indicate the class for RRIRQRPPRLPRPRPRPDKWPRP based on its shrunken log2 fold change.
class 1

Please indicate the class for RRIRERPPRLPRPRPRPMVRPRP based on its shrunken log2 fold change.
class 1

====

- System: Escherichia coli TOP10
- assay.notes: shrunken log2 fold change of peptide-encoding DNA abundance (4.5 h post-induction vs induction); higher = less antimicrobial activity (less host growth inhibition)
- particulars: time post-induction: 4.5 h; library: site-saturation at positions 5, 18, 19, 20
Binary classification by shrunken log2 fold change, with -0.2 as an inclusive lower bound for Met; all other cases are Not met.

Worked examples, 8 sequences total:
[[record]]
sequence_text = "RRIRMRPPRLPRPRPRPWFAPRP"
label_value = "Met"

[[record]]
sequence_text = "RRIRNRPPRLPRPRPRPCLMPRP"
label_value = "Not met"

[[record]]
sequence_text = "RRIRYRPPRLPRPRPRPFPTPRP"
label_value = "Not met"

[[record]]
sequence_text = "RRIRHRPPRLPRPRPRPYHCPRP"
label_value = "Not met"

[[record]]
sequence_text = "RRIRCRPPRLPRPRPRPDCLPRP"
label_value = "Not met"

[[record]]
sequence_text = "RRIRVRPPRLPRPRPRPTENPRP"
label_value = "Met"

[[record]]
sequence_text = "RRIRKRPPRLPRPRPRPVMNPRP"
label_value = "Met"

[[record]]
sequence_text = "RRIRHRPPRLPRPRPRPLTVPRP"
label_value = "Met"


shrunken log2 fold change >= -0.2 for RRIRVRPPRLPRPRPRPEFHPRP ?
Not met

shrunken log2 fold change >= -0.2 for RRIRWRPPRLPRPRPRPMEFPRP ?
Met

shrunken log2 fold change >= -0.2 for RRIRGRPPRLPRPRPRPNREPRP ?
Met

shrunken log2 fold change >= -0.2 for RRIRDRPPRLPRPRPRPLVYPRP ?
Not met

====

- System: Escherichia coli TOP10
- assay.notes: shrunken log2 fold change of peptide-encoding DNA abundance (4.5 h post-induction vs induction); higher = less antimicrobial activity (less host growth inhibition)
- particulars: time post-induction: 4.5 h; library: site-saturation at positions 5, 18, 19, 20
property.name: shrunken log2 fold change
Could you respond with only the numeric value?

Example entries begin here.
[[record]]
sequence_text = "RRIRARPPRLPRPRPRPGSCPRP"
property_name = "shrunken log2 fold change"
endpoint_value = 0.32

[[record]]
sequence_text = "RRIRRRPPRLPRPRPRPRNFPRP"
property_name = "shrunken log2 fold change"
endpoint_value = 0.306

[[record]]
sequence_text = "RRIRNRPPRLPRPRPRPTHGPRP"
property_name = "shrunken log2 fold change"
endpoint_value = -0.0213

[[record]]
sequence_text = "RRIRKRPPRLPRPRPRPGYQPRP"
property_name = "shrunken log2 fold change"
endpoint_value = 0.0954

[[record]]
sequence_text = "RRIRPRPPRLPRPRPRPNNEPRP"
property_name = "shrunken log2 fold change"
endpoint_value = -0.504

[[record]]
sequence_text = "RRIRVRPPRLPRPRPRPGWGPRP"
property_name = "shrunken log2 fold change"
endpoint_value = 0.621


Reported shrunken log2 fold change for RRIRKRPPRLPRPRPRPINAPRP : what is it?
0.088

Reported shrunken log2 fold change for RRIRGRPPRLPRPRPRPNLLPRP : what is it?
0.485

Reported shrunken log2 fold change for RRIRLRPPRLPRPRPRPKKHPRP : what is it?
-0.154

Reported shrunken log2 fold change for RRIRFRPPRLPRPRPRPICKPRP : what is it?
-0.0703

Reported shrunken log2 fold change for RRIRIRPPRLPRPRPRPKYQPRP : what is it?
-0.615

Reported shrunken log2 fold change for RRIRFRPPRLPRPRPRPTGPPRP : what is it?
0.445

Reported shrunken log2 fold change for RRIRTRPPRLPRPRPRPIPYPRP : what is it?
-0.0288

Reported shrunken log2 fold change for RRIRWRPPRLPRPRPRPQDPPRP : what is it?
0.0126

====

- Tested on: Escherichia coli TOP10
- assay.notes: shrunken log2 fold change of peptide-encoding DNA abundance (4.5 h post-induction vs induction); higher = less antimicrobial activity (less host growth inhibition)
- particulars: time post-induction: 4.5 h; library: site-saturation at positions 5, 18, 19, 20
Binary classification by shrunken log2 fold change, with -0.2 as an inclusive lower bound for Satisfied; all other cases are Not satisfied.

Worked examples, 2 sequences total:
[[record]]
sequence_text = "RRIRHRPPRLPRPRPRPDNMPRP"
study_system = "Escherichia coli TOP10"
label_value = "Satisfied"

[[record]]
sequence_text = "RRIRPRPPRLPRPRPRPIRIPRP"
study_system = "Escherichia coli TOP10"
label_value = "Satisfied"


We now examine a further sequence.
shrunken log2 fold change >= -0.2 for RRIRMRPPRLPRPRPRPPMHPRP ?
Satisfied

====

- System: Escherichia coli TOP10
- assay.notes: shrunken log2 fold change of peptide-encoding DNA abundance (4.5 h post-induction vs induction); higher = less antimicrobial activity (less host growth inhibition)
- particulars: time post-induction: 4.5 h; library: site-saturation at positions 5, 18, 19, 20
property.name: shrunken log2 fold change

Example entries begin here.
[[record]]
sequence_text = "RRIRPRPPRLPRPRPRPYRWPRP"
property_name = "shrunken log2 fold change"
endpoint_value = 0.087

[[record]]
sequence_text = "RRIRCRPPRLPRPRPRPKSIPRP"
property_name = "shrunken log2 fold change"
endpoint_value = -0.349


Reported shrunken log2 fold change for RRIRNRPPRLPRPRPRPAILPRP : what is it?
-0.101

Reported shrunken log2 fold change for RRIRCRPPRLPRPRPRPQHMPRP : what is it?
-0.74

Reported shrunken log2 fold change for RRIRPRPPRLPRPRPRPQDKPRP : what is it?
-0.00457

Reported shrunken log2 fold change for RRIRCRPPRLPRPRPRPTPQPRP : what is it?
0.794

Reported shrunken log2 fold change for RRIRSRPPRLPRPRPRPFMFPRP : what is it?
-0.156

====

- Tested on: Escherichia coli TOP10
- assay.notes: shrunken log2 fold change of peptide-encoding DNA abundance (4.5 h post-induction vs induction); higher = less antimicrobial activity (less host growth inhibition)
- particulars: time post-induction: 4.5 h; library: site-saturation at positions 5, 18, 19, 20
Catalogue of sequences with associated shrunken log2 fold change
Could you respond with only the numeric value?

Example entries begin here.
[[record]]
sequence_text = "RRIRMRPPRLPRPRPRPQEGPRP"
endpoint_value = 0.0197

[[record]]
sequence_text = "RRIRKRPPRLPRPRPRPVPPPRP"
endpoint_value = 1.85


Now, please, on to the next sequence.
Reported shrunken log2 fold change for RRIRPRPPRLPRPRPRPTPWPRP : what is it?
0.427

====

- Tested on: Escherichia coli TOP10
- assay.notes: shrunken log2 fold change of peptide-encoding DNA abundance (4.5 h post-induction vs induction); higher = less antimicrobial activity (less host growth inhibition)
- particulars: time post-induction: 4.5 h; library: site-saturation at positions 5, 18, 19, 20
property.name: shrunken log2 fold change
Could you respond with only the numeric value?

[[record]]
sequence_text = "RRIRIRPPRLPRPRPRPDKPPRP"
study_system = "Escherichia coli TOP10"
endpoint_value = -0.0335


// lookup shrunken log2 fold change | system=Escherichia coli TOP10 | key= RRIRVRPPRLPRPRPRPYHTPRP
-0.15

// lookup shrunken log2 fold change | system=Escherichia coli TOP10 | key= RRIRCRPPRLPRPRPRPHMAPRP
-0.374

// lookup shrunken log2 fold change | system=Escherichia coli TOP10 | key= RRIRDRPPRLPRPRPRPLWQPRP
0.316

// lookup shrunken log2 fold change | system=Escherichia coli TOP10 | key= RRIRLRPPRLPRPRPRPDGRPRP
-0.00938

// lookup shrunken log2 fold change | system=Escherichia coli TOP10 | key= RRIRLRPPRLPRPRPRPKQLPRP;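 further: peptides expressed intracellularly from a pBAD plasmid library in pooled LB shake-flask culture, induced with 0.3% L-arabinose, DNA abundance read by NGS, three biological replicates, DESeq2 with apeglm shrinkage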
-0.0685
